Tested on: c-Src
Assay: phosphorylation enrichment, bacterial display (enrichment ratio); higher = better substrate or ligand; peptides without Tyr show the background;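 also: 11-residue human phosphosite peptides and single-mutation variants displayed on the E. coli surface, counted by deep sequencing, each peptide's frequency after selection divided by its frequency in the unselected input library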;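 also: frequency after pTyr selection over input frequency; kinase dosed for 20-30% of maximal phosphorylation in three min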

seq.text: PLQKTYNYNML [SLC4A1_Y553_V557M]
phosphorylation enrichment: 0.52

seq.text: FNSLLYQVPTS [CALCOCO2_Y358_P357L]
phosphorylation enrichment: 3.65

seq.text: KTTSGYAGGLS [KRT8_Y419]
phosphorylation enrichment: 0.369

seq.text: DCPASYKKKSM [PDGFRA_Y768_R764C]
phosphorylation enrichment: 0.253

seq.text: NEKNIYRVPLM [BMPR2_Y247]
phosphorylation enrichment: 0.877

seq.text: RQSRNYLGGFA [SYK_Y47]
phosphorylation enrichment: 0.69

seq.text: GGSSPYSRRLP [CDK13_Y351]
phosphorylation enrichment: 0.393

seq.text: MSSLYYANALF [HOXB7_Y6_T9A]
phosphorylation enrichment: 4.88

seq.text: TTEHIYGDNFF [UBA7_Y524]
phosphorylation enrichment: 4.18

seq.text: NSAFFYKTAEE [CCT6B_Y250_G247A]
phosphorylation enrichment: 0.38

seq.text: GLIPAYHRVIM [NMNAT1_Y64]
phosphorylation enrichment: 0.414

seq.text: REETTYLPLTS [ICAM3_Y527_S525T]
phosphorylation enrichment: 1.61

seq.text: GRRNTCYASIA [ACADM_Y352_Y352C]
phosphorylation enrichment: 0.495

seq.text: EFHRLYEEFTR [PIK3R1_Y467_D464H_YF]
phosphorylation enrichment: 5.59

---

Test system: c-Src
Test: phosphorylation enrichment, bacterial display (enrichment ratio); higher = better substrate or ligand; peptides without Tyr show the background
Below: a set of entries, each annotated with reported phosphorylation enrichment.

seq.text: DAHFTYSRYPW [LY75_Y888_D884A]
phosphorylation enrichment: 3.24

seq.text: RHPYFFAPELL [ALB_Y174_Y174F]
phosphorylation enrichment: 1.29

seq.text: FRAVKYLQMVG [AVPR2_Y117_C112Y_YF]
phosphorylation enrichment: 0.496

seq.text: FEPWVYSLSFE [PRKDC_Y647_F649L_YF]
phosphorylation enrichment: 6.52

seq.text: QTPVLYTMLDH [MPZ_Y220_A221T]
phosphorylation enrichment: 3

seq.text: FQCKHYACIRQ [TIMP3_Y182_S179C_YF]
phosphorylation enrichment: 0.393

seq.text: GDPTEYYSTAI [IGSF22_Y501]
phosphorylation enrichment: 0.87

seq.text: NDENIYKGLPD [VAV3_Y141_D139N]
phosphorylation enrichment: 1.78

seq.text: ARSHIYTLASC [MEFV_Y741_F743L]
phosphorylation enrichment: 2.07

seq.text: LSSETYVKSYT [F5_Y2149_M2148T]
phosphorylation enrichment: 0.668

seq.text: SHISGYATLRR [RAPH1_Y1226]
phosphorylation enrichment: 0.382

seq.text: FMMMRYSQNIR [SDAD1_Y656_V660I]
phosphorylation enrichment: 0.397

seq.text: TINPIHEHVGY [CHN1_Y143_Y143H]
phosphorylation enrichment: 0.423

---

Here the recorded phosphorylation enrichment is given for each entry.
Molecular target: Fes (UniProt P07332)
Sequence (P07332 whole entry, looked up): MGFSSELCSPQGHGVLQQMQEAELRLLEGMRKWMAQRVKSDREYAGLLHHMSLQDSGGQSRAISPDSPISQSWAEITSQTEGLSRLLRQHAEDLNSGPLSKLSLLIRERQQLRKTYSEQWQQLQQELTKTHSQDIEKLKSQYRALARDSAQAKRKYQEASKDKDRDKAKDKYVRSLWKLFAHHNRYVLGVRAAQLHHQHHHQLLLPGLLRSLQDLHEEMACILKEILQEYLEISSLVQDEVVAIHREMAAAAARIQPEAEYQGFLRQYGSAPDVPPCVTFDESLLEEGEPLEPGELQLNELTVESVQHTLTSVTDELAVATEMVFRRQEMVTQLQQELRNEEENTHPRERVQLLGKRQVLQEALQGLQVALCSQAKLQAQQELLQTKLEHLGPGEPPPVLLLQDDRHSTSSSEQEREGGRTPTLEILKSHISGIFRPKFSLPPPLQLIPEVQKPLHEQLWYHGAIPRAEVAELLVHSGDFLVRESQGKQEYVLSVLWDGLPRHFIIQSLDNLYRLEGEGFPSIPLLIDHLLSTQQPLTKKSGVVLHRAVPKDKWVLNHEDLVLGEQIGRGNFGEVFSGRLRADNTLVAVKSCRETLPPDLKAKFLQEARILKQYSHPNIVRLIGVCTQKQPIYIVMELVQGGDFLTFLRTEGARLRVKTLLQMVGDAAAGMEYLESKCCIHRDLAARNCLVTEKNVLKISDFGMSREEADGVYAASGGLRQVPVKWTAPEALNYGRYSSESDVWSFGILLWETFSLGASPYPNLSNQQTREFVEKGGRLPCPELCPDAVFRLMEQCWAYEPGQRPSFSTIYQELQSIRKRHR
Assay: phosphorylation enrichment, bacterial display (enrichment ratio); higher = better substrate or ligand; peptides without Tyr show the background
assay.metric: phosphorylation enrichment

seq.text: SSVKPYRVYCD [FGB_Y266]
observed.result: 0.791

seq.text: GSQERDFELVE [TSC2_Y407_Y407D]
observed.result: 1.04

seq.text: LSQDVYEEDSF [RET_Y900_R897Q_YF]
observed.result: 2.43

seq.text: EIEFLYNENTV [IARS1_Y680]
observed.result: 1.26

seq.text: SVMAEYGLFRA [VSX2_Y219_G223R_YF]
observed.result: 0.661

seq.text: GFCSWYRGWAP [TIMP3_Y195_YF]
observed.result: 1.27

seq.text: MTFMFYRENLR [NLRP14_Y443_V441M_YF]
observed.result: 1.28

seq.text: MHLRQYKLLGG [GNAS_Y391_E392K]
observed.result: 0.764

seq.text: MASISYDYCRV [BST2_Y6_T4I]
observed.result: 0.908

seq.text: LSEEKYELKEG [TREM1_Y29_T25S]
observed.result: 1.4

seq.text: DEDEEYEFMNR [ERBB3_Y1197_YF]
observed.result: 1.17

seq.text: NKVKFYIPFMN [NCR1_Y84_D87Y_YF]
observed.result: 1.02

seq.text: TENAGYFFRVS
observed.result: 1.36

seq.text: VKPRRYRPGTV [H3-5_Y41_H39R]
observed.result: 0.542

FYI, the data here is from the supplement of paper PMC10065799.
